growth reference
Test system: SK-MEL-2 melanoma
experiment_description: NCI-60 one-dose screen, 48 h (100 = growth as untreated, 0 = no growth, -100 = all killed)
condition_details: 10 µM unless noted
This is part of a sample that, as a whole, favours compounds with a hit. Of some 83,000 tested, about 20% had one in any assay.
Response body: numeric value in %, unit text excluded.

compound	study_system	growth, %
CCOC(=O)[C@@H](C)C[C@H](Cc1ccccc1)NC(=O)c1csc([C@@H](C[C@H](C(C)C)N(C)C(=O)[C@@H](NC(=O)[C@H]2CCCCN2C)C(C)(C)CC)OC(C)=O)n1	SK-MEL-2 melanoma	2.19
COc1cc2ncnc(Nc3ccc(F)c(Cl)c3)c2cc1OCC(=O)N1CCN(C)CC1	SK-MEL-2 melanoma	94.4
CCCCCCCC[N+](C)(CCCCCCCC)CCCCCCCC	SK-MEL-2 melanoma	-94.1
COc1cc(/C=C/[N+](=O)[O-])cc(OC)c1	SK-MEL-2 melanoma	59.6
CN1CCC(c2c[nH]c3ccccc23)C1 (configuration not stated)	SK-MEL-2 melanoma	87.5

Q: Provide growth value for the following compound: "COC(=O)C12CC(NC(=O)c3csc([C@@H](C[C@H](C(C)C)N(C)C(=O)[C@@H](NC(=O)[C@H]4CCCCN4C)C(C)C)OC(C)=O)n3)(C1)C2"
Ans: 28.5

Q: Look up growth of ClCCN(CCCl)c1nc(Cl)c(C2CC(c3ccccc3)=NN2c2cc(Cl)cc(Cl)c2)s1 (configuration not stated) and report it.
Ans: 103

Q: Indicate its recorded growth; the compound in question is CC(=O)OC1CCC2C3CCC4=C/C(=N/OC(=O)c5ccc(N(CCCl)CCCl)cc5)CCC4(C)C3CC(C)C12 (configuration not stated)
Ans: 104

Q: Provide measured growth value, entry: "O=C(Nc1ccc(O)cc1)C(Cl)(Cl)Cl"
Ans: 99.4

Q: Look up growth of "COc1ccc(/C(C)=C(\c2ccc(OCCN3CCOCC3)cc2)c2ccc(OC(=O)Cc3ccccc3)cc2)cc1" and report it.
Ans: 96.1

Q: Return the recorded growth value; entry: "Cc1cc(N(CCCl)CCCl)ccc1C=Nc1ccccc1-c1ccccc1"
Ans: 115

Q: Give a short answer stating reported growth for "COc1cccc2c1c(C(=O)c1ccco1)cn2Cc1ccc(F)cc1" .
Ans: 73.8

Q: Give the reported growth for this compound. "C=CC[PH+](c1ccccc1)c1ccccc1.C=CC[PH+](c1ccccc1)c1ccccc1.[Cl][Pt][Cl]"
Ans: 71.1

Q: Supply measured growth of COc1cc(C=C2c3ccccc3C(=O)c3ccccc32)ccc1OCCCCOc1cc2c(cc1OC)C(=O)N1CCCC1C=N2 (configuration not stated) in your reply.
Ans: -79.6

Q: # return recorded growth for entry O=C1C2CC=CCC2C(=O)N1SC(Cl)(Cl)Cl (configuration not stated)
Ans: 122

Q: Provide growth value for the following compound: "CC(=O)O[C@H]1C(=O)[C@@]2(C)[C@H]([C@H](OC(=O)c3ccccc3)[C@]3(O)C[C@H](OC(=O)[C@H](OC(=O)OC[C@@H]4COC(C)(C)O4)[C@@H](NC(=O)c4ccccc4)c4ccccc4)C(C)=C1C3(C)C)[C@]1(OC(C)=O)CO[C@@H]1C[C@@H]2O"
Ans: 24.3

Q: Tell me measured growth for "Cc1sc2c(c1C)C(c1ccc(Cl)cc1)=N[C@@H](CC(=O)OC(C)(C)C)c1nnc(C)n1-2" please.
Ans: 48.8

* * *

Tested on: SF-295 CNS
experiment_description: NCI-60 one-dose screen, 48 h
condition_details: 10 µM unless noted
Compounds without any hit were thinned out: in the full panel of roughly 83,000, 20% have a hit. Activity calls are given as the source filed them. The calls were made as follows: active = growth percent below 10; inactive = the rest.
// one of active, inactive, no free text

compound	assigned_category
CC(C)=CCC/C(C)=C/C=N\N=C(/N)N[N+](=O)[O-]	inactive
O=C([O][Hg][c]1ccccc1)c1ccccc1	inactive

Q: Check the results log: what was the call for "COc1ccc(C/C(C)=C(\c2ccc(OCCN3CCOCC3)cc2)c2ccc(OC(=O)Cc3ccccc3)cc2)cc1" ?
Ans: active

Q: Identify the outcome logged in this assay for the compound shown: "CC1=C([Te]c2ccc(O)cc2)C(=O)c2ccccc2C1=O"
Ans: active

Q: Please indicate how the test categorized "CCc1ccccc1[C@@H]1C[C@]2(C)CCO[C@@H]2OO1" .
Ans: inactive

Q: Please state the recorded outcome for this compound: "NC(=Nc1ccccc1)N[N+](=O)[O-]"
Ans: inactive

Q: Which result was noted for this compound in the test: "COc1ccc(/C=C\c2cc(OC)c(OC)c(OC)c2)c(NS(=O)(=O)c2ccc(Cl)cc2)c1O"
Ans: active

Q: Check the results log: what was the call for "COC(=O)[C@@H](C)C[C@H](Cc1ccccc1)NC(=O)c1csc([C@@H](C[C@H](C(C)C)N(C)C(=O)C2(NC(=O)[C@H]3CCCCN3C)CCC2)OC(C)=O)n1" ?
Ans: active

Q: Just curious, what result did CN1CCC(O)(c2ccc(F)cc2)C(C(=O)c2ccc(F)cc2)C1 (stereo not given) get here?
Ans: inactive

Q: Give the logged outcome of this assay for the following compound: "CCCC(=O)O[C@@H]1C[C@H]2C[C@@H](O[C@@H]3O[C@@H](C)[C@@H](O)[C@@H](O)[C@H]3OC)C[C@@H](C[C@@H](C)/C=C/C=C\C[C@@H]3O[C@@H](C[C@@H]3C)[C@@H](O)C[C@H]3C[C@@]1(O)C(=O)O3)O2"
Ans: active

* * *

Test system: LOX IMVI melanoma
experiment_description: NCI-60 one-dose screen, 48 h (100 = growth as untreated, 0 = no growth, -100 = all killed)
condition_details: 10 µM unless noted
This is part of a sample that, as a whole, favours compounds with a hit. Of some 83,000 tested, about 20% had one in any assay.
observable: growth (%)
Form entry: value (%) — number only.

molecule	growth (%)
Cc1c(O)c(CN(CCCl)CCCl)cc(CN(CCCl)CCCl)c1O	77.4
O=C1OCCC1Br (stereo unspecified)	97.4
C=CCCCCCCCCC(=O)[O-].C=CCCCCCCCCC(=O)[O-].[Zn+2]	90.5
Nc1c(F)cc(-c2nc3cc(F)ccc3[se]2)cc1F	89.3

Q: // output growth; input "Cc1ccc(S(=O)(=O)C(Cl)(Cl)Cl)cc1" ; system LOX IMVI melanoma
Ans: 98.3

Q: Answer briefly: growth recorded on LOX IMVI melanoma for "CC[C@]12C=CCN3CC[C@]4(C(=C(C(=O)OC)C1)Nc1cc(OC)c(OC(C)=O)cc14)[C@@H]32"
Ans: -24

Q: For LOX IMVI melanoma, give growth of the listed molecule: CCCCCCCCCCCCNC(c1ccccc1)C(O)c1ccccc1 (stereo unspecified)
Ans: 49.8

Q: State recorded growth with LOX IMVI melanoma, entry "CN1C(=O)C(=Cc2cn(Cc3ccccc3)c3ccccc23)C(=O)N(C)C1=O" , no comment.
Ans: 82.6

* * *

Tested on: A549/ATCC NSCLC
experiment_description: NCI-60 one-dose screen, 48 h (100 = growth as untreated, 0 = no growth, -100 = all killed)
condition_details: 10 µM unless noted
About 83,000 compounds went through this panel and 20% of them were active in at least one assay; those are over-represented in the sample as a whole.
As shown below, each of these molecules has a reported growth value.
Response body: numeric value in %, unit text excluded.

molecule	study_system	observable	readout_value
O=[N+]([O-])CC(O)C(Cl)(Cl)Cl (configuration not stated)	A549/ATCC NSCLC	growth	106
Cn1cc(-c2csc(-c3cn(CCN4CCOCC4)c4ccc(F)cc34)n2)c2cccnc21	A549/ATCC NSCLC	growth	22.5
Clc1ccc(CSC(Cn2ccnc2)c2ccc(Cl)cc2Cl)cc1 (configuration not stated)	A549/ATCC NSCLC	growth	27.5

Q: Output growth of CC(CO)NC1CCCCC1 (configuration not stated)
Ans: 102

Q: Specify measured growth for "CCOC(=O)[C@@H](C)C[C@H](Cc1ccccc1)NC(=O)c1csc([C@@H](C[C@H](C(C)C)N(C)C(=O)CNC(=O)[C@H]2CCCCN2C)OC(C)=O)n1" .
Ans: 16.4

Q: Look up and state reported growth for "O=c1[nH]cc(N(CCCl)CCCl)c(=O)[nH]1"
Ans: 77.5

* * *

Test system: OVCAR-8 ovarian
experiment_description: NCI-60 one-dose screen, 48 h (100 = growth as untreated, 0 = no growth, -100 = all killed)
condition_details: 10 µM unless noted
The panel holds about 83,000 compounds, 20% with a hit somewhere; the sample as a whole holds those more often.
Recorded growth, one value per entry.
Quick note: give the figure in %, leave out the unit.

compound	readout_value
CC[C@@H]1[C@@H](C)O[C@@](O)([C@@H](C)[C@H](O)[C@H](C)[C@H]2OC(=O)/C=C/C=C/[C@H](C)[C@@H]([C@@H](C)[C@@H](O)[C@H](C)[C@@]3(O)C[C@@H](O[C@H]4C[C@@H](O)[C@H](O)C(C)O4)[C@H](CC)[C@@H](C)O3)OC(=O)/C=C/C=C/[C@@H]2C)C[C@H]1O[C@@H]1C[C@@H](O)[C@H](O)C(C)O1 (some centres not stated)	-75.9

Shift focus to the following entry.
Q: Return the recorded growth value; entry: "C[C@]12CC[C@@H]3c4ccc(Oc5nc(N6CC6)nc(N6CC6)n5)cc4CC[C@H]3[C@@H]1CCC2=O"
Ans: 36.4
